This collection of values is drawn from paper PMC10812921.

target: POU1 (OCT1 POU domain);BOB1 (OBF1, OCA-B) (human;human, UniProt P14859;Q16633 260-458;1-256, |); assay: EMSA-SELEX-seq; with BOB1 (ternary complex band); 20 mM Tris-HCl pH 7.6, 140 mM NaCl, 10% glycerol, 0.5 mM EDTA, 0.05% Triton X-100, 0.1 mg/mL BSA, 0.1 mg/mL poly(dI-dC), 5 mM DTT, room temperature, 20 min; high values mean tight binding; details: protein: recombinant;recombinant; copies: 1;1; dsDNA, one strand shown
Sequence (P14859 260-458, chain 1 of 2): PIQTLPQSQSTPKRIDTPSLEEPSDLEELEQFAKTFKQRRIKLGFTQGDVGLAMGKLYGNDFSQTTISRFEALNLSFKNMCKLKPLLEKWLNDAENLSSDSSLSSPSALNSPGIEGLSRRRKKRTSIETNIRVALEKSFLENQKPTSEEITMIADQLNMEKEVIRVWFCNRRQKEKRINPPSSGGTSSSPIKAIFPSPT
Sequence (Q16633 whole entry, chain 2 of 2, the tested form may be a part): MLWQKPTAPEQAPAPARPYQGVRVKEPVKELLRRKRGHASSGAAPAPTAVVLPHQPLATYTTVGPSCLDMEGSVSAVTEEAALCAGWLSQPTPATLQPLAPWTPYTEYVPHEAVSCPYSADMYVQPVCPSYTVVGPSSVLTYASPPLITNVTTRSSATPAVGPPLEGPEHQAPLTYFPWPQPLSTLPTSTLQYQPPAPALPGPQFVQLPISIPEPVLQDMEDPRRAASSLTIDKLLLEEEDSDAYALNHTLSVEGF
Readout Kind: binding signal

AGTGGAAA    0.0718 % of ANNNNAAN 8-mers
AACTGAAG    0.0215 % of ANNNNAAN 8-mers
ATGGAAAT    0.958 % of ANNNNAAN 8-mers
AAATAAAG    0.168 % of ANNNNAAN 8-mers

Inquiry: Can you share its binding signal? I mean this sequence: `AACCGAAA`
Reply text: 0.0265 % of ANNNNAAN 8-mers

Inquiry: Please answer likewise for `AGATCAAA`
Reply text: 0.0414 % of ANNNNAAN 8-mers

Inquiry: Please answer likewise for `ACCCCAAG`
Reply text: 0.0105 % of ANNNNAAN 8-mers

###

molecular target: POU1 (OCT1 POU domain);BOB1 (OBF1, OCA-B) (human;human, UniProt P14859;Q16633 260-458;1-256, |); assay: EMSA-SELEX-seq; with BOB1 (ternary complex band); 20 mM Tris-HCl pH 7.6, 140 mM NaCl, 10% glycerol, 0.5 mM EDTA, 0.05% Triton X-100, 0.1 mg/mL BSA, 0.1 mg/mL poly(dI-dC), 5 mM DTT, room temperature, 20 min; high values mean tight binding; details: protein: recombinant;recombinant; copies: 1;1; dsDNA, one strand shown
Readout Kind: binding signal

ATGAAAAG    0.175 % of ANNNNAAN 8-mers
AACTGAAT    0.0562 % of ANNNNAAN 8-mers
ACGCAAAC    0.103 % of ANNNNAAN 8-mers
AACCGAAC    0.0117 % of ANNNNAAN 8-mers
AACTTAAC    0.0234 % of ANNNNAAN 8-mers

Inquiry: Can you share its binding signal? I mean this sequence: `ATCCCAAG`
Reply text: 0.0246 % of ANNNNAAN 8-mers

Inquiry: Please answer likewise for `ATATGAAT`
Reply text: 0.122 % of ANNNNAAN 8-mers

Inquiry: Please answer likewise for `ACCCGAAG`
Reply text: 0.0129 % of ANNNNAAN 8-mers

Inquiry: Please answer likewise for `ACAGAAAG`
Reply text: 0.0281 % of ANNNNAAN 8-mers

Inquiry: Please answer likewise for `AAGCAAAG`
Reply text: 0.125 % of ANNNNAAN 8-mers

Inquiry: Please answer likewise for `ATTCTAAT`
Reply text: 0.12 % of ANNNNAAN 8-mers

Inquiry: Please answer likewise for `AGTTAAAG`
Reply text: 0.064 % of ANNNNAAN 8-mers

Inquiry: Please answer likewise for `AGTATAAA`
Reply text: 0.0585 % of ANNNNAAN 8-mers

Inquiry: Please answer likewise for `AAATGAAG`
Reply text: 0.186 % of ANNNNAAN 8-mers

Inquiry: Please answer likewise for `AATGTAAC`
Reply text: 0.046 % of ANNNNAAN 8-mers

Inquiry: Please answer likewise for `AGAAGAAT`
Reply text: 0.0597 % of ANNNNAAN 8-mers

Inquiry: Please answer likewise for `ATCCCAAT`
Reply text: 0.025 % of ANNNNAAN 8-mers

Inquiry: Please answer likewise for `AGAGAAAC`
Reply text: 0.0332 % of ANNNNAAN 8-mers

Inquiry: Please answer likewise for `AAGCTAAA`
Reply text: 0.0453 % of ANNNNAAN 8-mers

Inquiry: Please answer likewise for `ATTCCAAT`
Reply text: 0.057 % of ANNNNAAN 8-mers
